Entry source: patent US6730666B1

- Target or system: FGFR-1 (Mus musculus)
- Sequence (P16092 22-822): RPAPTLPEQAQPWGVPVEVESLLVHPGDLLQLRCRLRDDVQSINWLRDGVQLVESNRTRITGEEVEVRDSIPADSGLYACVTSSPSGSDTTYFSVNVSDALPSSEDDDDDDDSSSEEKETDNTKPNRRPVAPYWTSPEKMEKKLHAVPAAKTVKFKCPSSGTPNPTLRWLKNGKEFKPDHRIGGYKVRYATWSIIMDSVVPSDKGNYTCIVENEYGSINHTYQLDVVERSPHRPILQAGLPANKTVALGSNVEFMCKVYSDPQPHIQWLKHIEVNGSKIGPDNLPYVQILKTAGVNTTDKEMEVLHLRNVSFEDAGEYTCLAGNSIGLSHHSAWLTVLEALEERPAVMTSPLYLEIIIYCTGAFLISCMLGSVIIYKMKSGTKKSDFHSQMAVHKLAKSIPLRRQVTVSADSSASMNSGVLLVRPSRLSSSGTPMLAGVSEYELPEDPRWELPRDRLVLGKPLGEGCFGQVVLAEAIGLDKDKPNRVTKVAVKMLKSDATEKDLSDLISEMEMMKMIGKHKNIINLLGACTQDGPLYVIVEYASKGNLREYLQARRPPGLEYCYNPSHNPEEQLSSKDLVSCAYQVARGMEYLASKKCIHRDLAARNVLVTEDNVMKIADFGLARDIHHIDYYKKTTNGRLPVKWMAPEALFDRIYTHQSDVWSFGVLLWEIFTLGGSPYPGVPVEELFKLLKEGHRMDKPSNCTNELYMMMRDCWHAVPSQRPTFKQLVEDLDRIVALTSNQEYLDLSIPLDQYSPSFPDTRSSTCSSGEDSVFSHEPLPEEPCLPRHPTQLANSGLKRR
- Assay: Binding of 125I-bFGF to CHO cells expressing FGFR-1
- Condition description: Cellular receptor binding (IC50), binding of FGF to FGFR; Methods section (iv)
Measured pIC50 values are reported for all entries that follow.
// pIC50 is dimensionless: -log10 of concentration (M)

compound="C[n+]1ccc(-c2c3nc(c(-c4cc[n+](C)cc4)c4ccc([nH]4)c(-c4cc[n+](C)cc4)c4nc(c(-c5cc[n+](C)cc5)c5ccc2[nH]5)C=C4)C=C3)cc1 [Compound P1]" recorded_result=5.82

Now, please, on to the next compound.
Query string: Can you share its pIC50? I mean this compound: C[n+]1ccc(-c2c3nc(c(-c4cc[n+](C)cc4)c4ccc([nH]4)c(-c4cc[n+](C)cc4)c4nc(c(-c5cc[n+](C)cc5)c5ccc2[nH]5)C=C4)C=C3)cc1 [Compound P8]
Result string: 5.89
